Tested on: HepG2
Experiment: cytotoxicity call (relative viability < 0.9)
Conditions: 10 µM
Hit rate of the full screen: of about 39,000 compounds, about 3,300 (8.5%) were called active. The sample holds actives, similar compounds and a random draw of the others, so the mix is not that of the screen.
Classes to choose from: Y (active), N (inactive)

Before answering, review these 4 worked examples.
1. C[C@H]1CN([C@@H](C)CO)C(=O)c2cc(N(C)C)ccc2O[C@H]1CN(C)S(=O)(=O)c1ccc(Cl)cc1	N
2. C[C@@H]1CN([C@@H](C)CO)C(=O)Cc2cc(NC(=O)Nc3cccc4ccccc34)ccc2O[C@H]1CN(C)Cc1ccccc1	N
3. O=C(O)c1ccnc(C(=O)O)c1	N
4. CC(=O)N1CCc2n[nH]c(C(=O)N3CCOCC3)c2C1	N

Give the logged outcome of this assay for the following compound: `C[C@H]1CN([C@@H](C)CO)C(=O)CCCn2cc(nn2)CO[C@@H]1CN(C)C(=O)Nc1cccc(Oc2ccccn2)c1`
N

Give the logged outcome of this assay for the following compound: `CN(C)Cc1nc(=O)c2ccccc2[nH]1`
N

Give the logged outcome of this assay for the following compound: `C[C@@H]1CN([C@H](C)CO)C(=O)Cc2cc(NC(=O)Nc3cccc4ccccc34)ccc2O[C@H]1CN(C)Cc1ccccc1`
N

Give the logged outcome of this assay for the following compound: `O=C(C[C@@H]1CC[C@H](NC(=O)c2ccc(F)cc2)[C@@H](CO)O1)NCc1ccncn1`
N

Give the logged outcome of this assay for the following compound: `C[C@@H]1CN([C@@H](C)CO)C(=O)c2cc(NC(=O)c3ccncc3)ccc2O[C@@H]1CN(C)Cc1ccc(Oc2ccccc2)cc1`
N

Give the logged outcome of this assay for the following compound: `O=C(C[C@@H]1C[C@H]2c3cc(NC(=O)C4CCOCC4)ccc3O[C@H]2[C@@H](CO)O1)NCc1ccc2c(c1)OCO2`
N
